Target: Phosphatidylinositol 5-phosphate 4-kinase type-2 alpha (Homo sapiens) (UniProt P48426)
Sequence (P48426 whole entry, looked up): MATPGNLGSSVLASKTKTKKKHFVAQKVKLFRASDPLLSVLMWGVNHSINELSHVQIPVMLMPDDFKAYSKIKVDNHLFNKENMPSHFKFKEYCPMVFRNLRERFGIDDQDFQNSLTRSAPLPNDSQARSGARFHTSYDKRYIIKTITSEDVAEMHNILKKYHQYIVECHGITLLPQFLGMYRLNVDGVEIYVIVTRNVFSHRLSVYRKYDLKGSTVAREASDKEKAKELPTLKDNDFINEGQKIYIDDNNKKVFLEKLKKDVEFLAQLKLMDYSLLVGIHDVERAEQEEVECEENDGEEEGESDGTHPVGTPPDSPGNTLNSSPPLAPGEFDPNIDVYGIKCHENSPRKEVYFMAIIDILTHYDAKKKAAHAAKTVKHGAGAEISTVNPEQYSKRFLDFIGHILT
Test: qHTS for Inhibitors of PI5P4K: Confirmation in Primary Assay; further: nearly all actives have a fitted effect of over 65% in size
Conditions: PI5P4Kalpha enzyme, ADP-Glo luminescence, 60 min; series mostly up to 76.9 µM
Among all 1,100 compounds or so, about 340 (31%) were called active. Roughly 40% stayed inconclusive and do not appear here. The call rests on the fitted dose curve; in most records, active means well fitted inhibition curve with a large enough effect; inconclusive means small, poorly fitted or top-dose-only effect; inactive means flat fitted curve, though single readings scatter. Not all results are given here.
Please state which outcome applies, choosing from T for active, F for inactive

q: How was "CCCCC(=O)N(Cc1ccc2c(c1)OCO2)Cc1nc2ccccc2c(=O)[nH]1" classified in this test?
a: F

q: // return assay outcome for "O=C(Nc1cc(S(=O)(=O)N2CCOCC2)ccc1O)c1ccc(NS(=O)(=O)c2ccc(Cl)s2)cc1"
a: T

q: Check the results log: what was the call for "Cc1cc(C)c2nc(-c3ccccn3)cc(C(=O)Nc3ccc(S(=O)(=O)Nc4onc(C)c4C)cc3)c2c1" ?
a: T

q: Kindly provide the recorded test outcome for the following compound: "Cc1cccc(Nc2nc(NCc3ccco3)c3ccccc3n2)c1"
a: T

q: What outcome does the record of this test show for "CC(=O)c1ccc(NC(=O)c2cnn3ccccc23)cc1" ?
a: T

---

Target: Phosphatidylinositol 5-phosphate 4-kinase type-2 alpha (Homo sapiens) (UniProt P48426)
Test: qHTS for Inhibitors of PI5P4K: Confirmation in Primary Assay; further: nearly all actives have a fitted effect of over 65% in size
Conditions: PI5P4Kalpha enzyme, ADP-Glo luminescence, 60 min; series mostly up to 76.9 µM
Screen size: about 1,100 compounds; about 340 (31%) were called active. Roughly 40% stayed inconclusive and do not appear here. Calls come from the whole dose curve; as a rule, active = well fitted inhibition curve with a large enough effect; inconclusive = small, poorly fitted or top-dose-only effect; inactive = flat fitted curve, though single readings scatter. A selection follows.
Result category, one only: active, inactive

q: Called result for "Cc1cc(NC(=O)CSc2cn(CCNC(=O)c3ccccc3)c3ccccc23)no1"
a: active

q: What did this assay record as the result for "Cc1ccc(C)c(S(=O)(=O)Nc2ccc3oc(C)c(C(=O)O)c3c2)c1" ?
a: active

q: Assay outcome for CC(=O)N1c2ccc(S(=O)(=O)NCCC(=O)N(C)C3CCCCC3)cc2CC1C (stereo unspecified) : what was it?
a: inactive

q: What outcome does the record of this test show for "Cc1cc(NC(=O)CN2CCN(C)CC2)no1" ?
a: inactive

q: Entry O=C(O)C1Nc2c(Cl)cc(Cl)c(Cl)c2C2C=CCC12 (stereo unspecified) : call = ?
a: active

---

Molecular target: Phosphatidylinositol 5-phosphate 4-kinase type-2 alpha (Homo sapiens) (UniProt P48426)
Test: qHTS for Inhibitors of PI5P4K: Confirmation in Primary Assay; further: nearly all actives have a fitted effect of over 65% in size; further: potency means the concentration at half of the fitted maximal effect
Details: PI5P4Kalpha enzyme, ADP-Glo luminescence, 60 min; series mostly up to 76.9 µM
Hit rate of the full screen: of about 1,100 compounds, about 340 (31%) were called active. Roughly 40% stayed inconclusive and do not appear here. A selection follows.
metric_name: Potency

Example entries and their recorded answers appear below.
INSERT INTO assay_data (compound, result) VALUES
  ('CCCN(C(=O)c1cc(-c2ccco2)nc2ccccc12)c1c(N)n(Cc2ccccc2)c(=O)[nH]c1=O', '15.8 µM (active)'),
  ('CC(C)(C(=O)N1CCC1(C)C(=O)NS(=O)(=O)c1ccc(C#N)cc1)c1ccccc1 (stereo unspecified)', 'inactive'),
  ('O=C(Nc1nnc(COc2ccc(Cl)cc2)s1)c1cccs1', 'inactive'),
  ('Cc1cc(NS(=O)(=O)c2ccc(NC(=O)COc3ccc(Br)cc3)cc2)nc(C)n1', 'inactive'),
  ('Cc1nc(N)sc1-c1csc(Nc2cccc(C(=O)O)c2)n1', '15.8 µM (active)'),
  ('COc1ccc(NC(=O)CSc2sc3c(O)cc(=O)[nH]c3c2C#N)c(OC)c1', '14.1 µM (active)');

q: Could you share which Potency value was measured for "COc1cc(Cl)c(C)cc1NC(=O)CSc1sc2c(O)cc(=O)[nH]c2c1C#N" ?
a: 5.01 µM (active)

q: Endpoint output: Potency of "NC(=O)c1c(NC(=O)CN2CCCC2)sc2c1CCCC2" . Value?
a: inactive

q: Dear colleague, I am looking for the recorded Potency of the following compound: "Cc1nn(-c2ccccc2)c2nc(=O)n(-c3ccccc3)cc12"
a: inactive

q: Looking for the measured Potency of "Cc1ccc(Nc2nc(NCc3ccco3)c3ccccc3n2)cc1" , can you help?
a: 35.5 µM (active)

q: I am curious: what Potency value has been reported for "Cc1cc2[nH]c3c4ccccc4nc(C)c3c2cc1C" ?
a: 28.2 µM (active)

q: For the compound shown here, CCCNC(=O)C1(C)CCCN(C(=O)c2cc(C)nn2C(C)(C)C)C1 (stereo unspecified) , give the reported Potency.
a: inactive

q: Suppose we examine the compound N#CC1=C2SCN(c3ccccc3)CN2C(=O)CC1c1cccs1 (stereo unspecified) ; what Potency value has been reported?
a: 15.8 µM (active)

q: // returns reported Potency for input "CCCn1c(N)c(N(CCOC)C(=O)c2cc(-c3ccco3)nc3ccccc23)c(=O)[nH]c1=O"
a: inactive

q: Record request: Potency value, item "NC(=O)c1c(NC(=O)c2ccccc2)sc2c1CCC2"
a: 25.1 µM (active)

q: Request the reported Potency associated with "Cc1ccc([N+](=O)[O-])cc1NC(=O)CCSc1ccc(Cl)cc1"
a: inactive

Ref: PubChem BioAssay AID743286
